# IC50 annotations
- systemTested: recombinant human GST-SYK (Homo sapiens, UniProt P43405)
- Construct: purchased Carna Biosciences 08-176
- measurementProtocol: Homogeneous Time-Resolved Fluorescence (HTRF) assay for the recombinant human Syk enzyme
- Type: biochemical
- assaySetup: GST-hSYK 5 pM, ATP 25 μM, IC50 rated in classes, read-out: rhSYK Activity

These solved cases illustrate the format of a correct answer.
Cc1cc(Nc2nccc(C(F)F)n2)cc(-c2cnc([C@H](C)[C@H]3CC[C@H](C(=O)O)[C@H](C)C3)nc2)c1 (single isomer, unassigned) [Example 7.8]: < 100 nM
Cc1cc(Nc2nccc(C(F)(F)F)n2)cc(-c2ccc(C(C)(C)O)nn2)c1: 100 to 1000 nM
Cc1cc(Nc2nccc(C(F)(F)F)n2)cc(-c2cnc(N3CCCC3C(N)=O)nc2)c1 (racemic): < 100 nM
Cc1cc(Nc2nccc(C(F)(F)F)n2)cc(-c2ccc(N3CCOCC3)nn2)c1: 100 to 1000 nM
Cc1cc(Nc2nccc(C(F)(F)F)n2)cc(-c2cnc(NCCO)nc2)c1: < 100 nM

q: Could you tell me which IC50 is on file for Cc1cc(Nc2nccc(C(F)(F)F)n2)cc(-c2cnc(NC3(C(=O)O)CCCC3)nc2)c1 ?
a: < 100 nM

q: Field entry: Cc1cc(Nc2nccc(C(F)(F)F)n2)cc(-c2cnc(N3CCS(=O)(=O)CC3)nc2)c1
a: < 100 nM

###

- systemTested: recombinant human GST-SYK (Homo sapiens)
- Construct: purchased Carna Biosciences 08-176
- measurementProtocol: Homogeneous Time-Resolved Fluorescence (HTRF) assay for the recombinant human Syk enzyme
- Assay type: biochemical
- assaySetup: GST-hSYK 5 pM, ATP 25 μM, values in text, read-out: IC50
- Description: Homogeneous Time-Resolved Fluorescence (HTRF) Assay for the Recombinant Human Syk Enzyme A recombinant GST-hSYK fusion protein was used to measure potency of compounds to inhibit human Syk activity. […] The resulting HTRF signal was measured after 30 minutes on an EnVision (Perkin-Elmer) reader using a time-resolved fluorescence protocol.
Entries whose IC50 is below 0.02 µM take YES; entries at or above 0.02 µM take NO.

q: State whether 0.02 µM exceeds IC50 recorded for Cc1cc(Nc2nccc(C(F)F)n2)cc(-c2cnc([C@H](C)[C@H]3CC[C@H](C(=O)O)[C@H](C)C3)nc2)c1 (single isomer, unassigned) [Example 7.2] .
a: YES

q: Field entry: Cc1cc(Nc2nccc(C(F)(F)F)n2)cc(-c2cnc(NC(C)(CO)CO)nc2)c1
a: YES

q: Field entry: Cc1cc(Nc2nccc(C(F)F)n2)cc(-c2cnc([C@@H](C)[C@H]3CC[C@H](C(=O)O)CC3)nc2)c1 (single isomer, unassigned) [Example 6.2]
a: YES

q: Field entry: Cc1cc(Nc2nccc(C(F)F)n2)cc(-c2cnc(C[C@H]3CC[C@H](C(=O)O)CC3)nc2)c1
a: YES

q: Field entry: Cc1cc(Nc2nccc(C(F)(F)F)n2)cc(-c2cncnc2)c1
a: NO

q: Field entry: Cc1cc(Nc2nccc(C3CC3)n2)cc(-c2cnc(CCC(=O)O)nc2)c1
a: NO

###

- systemTested: recombinant human GST-SYK (Homo sapiens)
- Construct: purchased Carna Biosciences 08-176
- measurementProtocol: Homogeneous Time-Resolved Fluorescence (HTRF) assay for the recombinant human Syk enzyme
- Format: biochemical
- assaySetup: GST-hSYK 5 pM, ATP 25 μM, IC50 rated in classes, read-out: rhSYK Activity
pIC50: −log10 of the molar value.
readoutLabel: pIC50

COc1ncc(-c2cc(C)cc(Nc3nccc(C(F)(F)F)n3)c2)cn1: > 7.00
Cc1cc(Nc2nccc(C)n2)cc(-c2ccc(CCC(=O)O)nn2)c1: 6.00 to 7.00
Cc1cc(Nc2nccc(C(F)(F)F)n2)cc(-c2cnc(N3CCCC(O)C3)nc2)c1 (centres unmarked): > 7.00
Cc1cc(Nc2nccc(C(F)(F)F)n2)cc(-c2cnc(N(C)CC(=O)O)nc2)c1: > 7.00
Cc1cc(Nc2nccc(C(F)(F)F)n2)cc(-c2cnc(NCCc3c[nH]cn3)nc2)c1: > 7.00

q: Could you tell me which pIC50 is on file for CNC(=O)CCNc1ncc(-c2cc(C)cc(Nc3nccc(C(F)(F)F)n3)c2)cn1 ?
a: > 7.00

q: Field entry: Cc1cc(Nc2nccc(C(F)(F)F)n2)cc(-c2cnc(N[C@H]3CCC(=O)NC3)nc2)c1
a: > 7.00

q: Field entry: CCOC(=O)CCc1ccc(-c2cc(C)cc(Nc3nccc(C(F)(F)F)n3)c2)nn1
a: 6.00 to 7.00
